# Tested on: chloroquine-sensitive (CQS) strain of P. falciparum (D10)
# test-protocol: in vitro antiplasmodial activity, chloroquine-sensitive strain D10
# Assay type: cell-based, Plasmodium falciparum
# measurement-conditions: CQS strain D10; tested in triplicate on one occasion; hydrophobic samples added as suspension; read-out: D10: IC50
pIC50: −log10 of the molar value.
measurement-label: pIC50

compound	target-or-test-system	result-value
CCN(CC)CC(Cn1cc(-c2ccccc2)nn1)NCc1ccccc1 (stereo not drawn) [Compound 16a]	chloroquine-sensitive (CQS) strain of P. falciparum (D10)	4.66
COC(c1ccc(Cl)cc1)C(CO)NCc1ccccc1 (racemic) [Compound 8c]	chloroquine-sensitive (CQS) strain of P. falciparum (D10)	3.70
Clc1ccc(CN2CC2Cn2cc(-c3ccccc3)nn2)cc1 (stereo not drawn) [Compound 15b]	chloroquine-sensitive (CQS) strain of P. falciparum (D10)	4.38
COc1ccc(CN2CC2CN=[N+]=[N-])cc1 (stereo not drawn) [Compound 14c]	chloroquine-sensitive (CQS) strain of P. falciparum (D10)	3.79
CCCNC(CO)C(OC)c1ccccc1F (racemic) [Compound 8e]	chloroquine-sensitive (CQS) strain of P. falciparum (D10)	4.41
[N-]=[N+]=NCC1CN1Cc1ccc(Cl)cc1 (stereo not drawn) [Compound 14b]	chloroquine-sensitive (CQS) strain of P. falciparum (D10)	4.00
CCN(CC)CC(Cn1cc(-c2ccc(C)cc2)nn1)NCc1ccccc1 (stereo not drawn) [Compound 16d]	chloroquine-sensitive (CQS) strain of P. falciparum (D10)	4.49
COC(c1ccccc1)C(CO)NC(C)C (racemic) [Compound 8a]	chloroquine-sensitive (CQS) strain of P. falciparum (D10)	3.43
[N-]=[N+]=NCC1CN1Cc1cccc(Cl)c1 (stereo not drawn) [Compound 14e]	chloroquine-sensitive (CQS) strain of P. falciparum (D10)	3.75
OCC(NCc1ccc(Cl)cc1)C(O)c1ccccc1 (racemic) [Compound 9d]	chloroquine-sensitive (CQS) strain of P. falciparum (D10)	4.09
COc1ccc(C(OC)C(CO)NCC(C)C)cc1 (racemic) [Compound 8d]	chloroquine-sensitive (CQS) strain of P. falciparum (D10)	4.41
COC(c1ccccc1)C(CO)NCc1ccccc1 (racemic) [Compound 8b]	chloroquine-sensitive (CQS) strain of P. falciparum (D10)	3.84
Cc1ccc(C(O)C(CO)NCc2ccccc2)cc1 (racemic) [Compound 9c]	chloroquine-sensitive (CQS) strain of P. falciparum (D10)	3.89
CCCNC(CO)Cc1ccccc1F (stereo not drawn) [Compound 6c]	chloroquine-sensitive (CQS) strain of P. falciparum (D10)	3.66
CCN(CC)CC(Cn1cc(-c2ccccc2)nn1)NCc1ccc(OC)cc1 (stereo not drawn) [Compound 16c]	chloroquine-sensitive (CQS) strain of P. falciparum (D10)	3.86
CN(C)CC(Cn1cc(-c2ccccc2)nn1)NCc1ccccc1 (stereo not drawn) [Compound 16g]	chloroquine-sensitive (CQS) strain of P. falciparum (D10)	4.16
COc1ccc(CC(CO)NCC(C)C)cc1 (stereo not drawn) [Compound 6b]	chloroquine-sensitive (CQS) strain of P. falciparum (D10)	3.55
[N-]=[N+]=NCC1CN1Cc1ccccc1Cl (stereo not drawn) [Compound 14d]	chloroquine-sensitive (CQS) strain of P. falciparum (D10)	4.03

The measurements presented in this section are drawn from paper PMC3252880.
